biological target: human RXFP1 (Homo sapiens, UniProt Q9HBX9); assay: RXFP1 Hu cAMP (Test A); assay type: cell-based; parameters: expressed in transfected cells; host or cells: Jump-In T-REx CHO-K1 cells (ThermoFisher), induced with 10 ng/ml doxycycline for 24 h; settings: RXFP1 Hu cAMP; read-out: Test A EC50
Sequence (Q9HBX9 whole entry): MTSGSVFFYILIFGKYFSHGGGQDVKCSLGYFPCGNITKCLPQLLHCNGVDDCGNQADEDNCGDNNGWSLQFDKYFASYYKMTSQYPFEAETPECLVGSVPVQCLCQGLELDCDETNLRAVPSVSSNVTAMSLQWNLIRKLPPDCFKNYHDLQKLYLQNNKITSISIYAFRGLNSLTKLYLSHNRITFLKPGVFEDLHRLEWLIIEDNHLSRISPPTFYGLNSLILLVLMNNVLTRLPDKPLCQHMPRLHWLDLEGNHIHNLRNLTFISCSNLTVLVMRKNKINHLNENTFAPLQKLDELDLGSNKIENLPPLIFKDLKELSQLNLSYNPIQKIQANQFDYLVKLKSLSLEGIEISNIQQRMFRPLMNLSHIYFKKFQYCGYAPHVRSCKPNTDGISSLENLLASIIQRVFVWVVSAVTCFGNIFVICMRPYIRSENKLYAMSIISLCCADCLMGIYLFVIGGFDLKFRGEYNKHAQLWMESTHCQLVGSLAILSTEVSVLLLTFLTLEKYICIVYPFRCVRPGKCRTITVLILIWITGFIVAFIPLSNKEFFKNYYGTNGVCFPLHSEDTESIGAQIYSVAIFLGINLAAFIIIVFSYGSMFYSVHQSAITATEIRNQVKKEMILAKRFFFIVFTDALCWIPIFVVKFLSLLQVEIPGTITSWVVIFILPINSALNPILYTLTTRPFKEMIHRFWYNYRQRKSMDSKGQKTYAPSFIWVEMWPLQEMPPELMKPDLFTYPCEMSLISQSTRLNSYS
Give measured EC50 for each item. Keep answers brief.

Input line: Entry `COc1cc(F)c(O[C@H]2CC[C@@](C)(C(=O)O)CC2)cc1C(=O)N[C@@H]1[C@H]2CC[C@H](C2)[C@@H]1C(=O)NCC1(F)CCOCC1` , system human RXFP1 (Homo sapiens, UniProt Q9HBX9): what EC50 was measured?
Output line: > 1.9 µM

Input line: Entry COc1cc(F)c(O[C@H]2CC[C@@](C)(C(=O)O)CC2)cc1C(=O)NC1C(OC)CCC1C(=O)Nc1cccc(S(=O)(=O)C(F)(F)F)c1 (single isomer, unassigned) , system human RXFP1 (Homo sapiens, UniProt Q9HBX9): what EC50 was measured?
Output line: > 40 µM

Input line: Entry `COc1cc(C#N)c(O[C@H]2CC[C@@](C)(C(=O)O)CC2)cc1C(=O)N[C@@H]1[C@H]2CC[C@H](C2)[C@@H]1C(=O)NCC(C)(C)CO` , system human RXFP1 (Homo sapiens, UniProt Q9HBX9): what EC50 was measured?
Output line: 1.2 µM

Input line: Entry COc1cc(F)c(-c2ccc(C(=O)O)cc2)cc1C(=O)N[C@H]1[C@@H](C(=O)Nc2cc(F)cc(C#N)c2)[C@@H]2C=C[C@H]1C2 (racemic) , system human RXFP1 (Homo sapiens, UniProt Q9HBX9): what EC50 was measured?
Output line: > 40 µM

Input line: Entry `COc1cc(F)c(O[C@H]2CC[C@@H](C(=O)O)CC2)cc1C(=O)N[C@@H]1[C@H]2CC[C@H](C2)[C@@H]1C(=O)Nc1ccc(C(F)F)cc1` , system human RXFP1 (Homo sapiens, UniProt Q9HBX9): what EC50 was measured?
Output line: 0.6 µM

Input line: Entry COc1cc(F)c(O[C@H]2CC[C@@](C)(C(=O)O)CC2)cc1C(=O)NC1COCCC1C(=O)Nc1ccc(F)c(S(F)(F)(F)(F)F)c1 (single isomer, unassigned) , system human RXFP1 (Homo sapiens, UniProt Q9HBX9): what EC50 was measured?
Output line: > 40 µM

Input line: Entry COc1cc(F)c(OCc2ccc(C(=O)O)cc2)cc1C(=O)N[C@H]1[C@@H](C(=O)Nc2cccc(S(=O)(=O)C(F)(F)F)c2)[C@@H]2C=C[C@H]1C2 (racemic) , system human RXFP1 (Homo sapiens, UniProt Q9HBX9): what EC50 was measured?
Output line: 0.61 µM

Input line: Entry `COc1cc(F)c(O[C@H]2CC[C@@](C)(C(=O)O)CC2)cc1C(=O)N[C@@H]1[C@H]2CC[C@H](C2)[C@@H]1C(=O)N[C@H](C)C(C)(C)C#N` , system human RXFP1 (Homo sapiens, UniProt Q9HBX9): what EC50 was measured?
Output line: 0.12 µM

Input line: Entry `COc1cc(F)c(O[C@H]2CC[C@@](C)(C(=O)O)CC2)cc1C(=O)N[C@@H]1CCC[C@]1(F)C(=O)Nc1cccc(S(=O)(=O)C(F)(F)F)c1` , system human RXFP1 (Homo sapiens, UniProt Q9HBX9): what EC50 was measured?
Output line: 0.037 µM

Input line: Entry `COc1cc(C#N)c(O[C@H]2CC[C@@](C)(C(=O)O)CC2)cc1C(=O)N[C@@H]1[C@H]2CC[C@H](C2)[C@@H]1C(=O)NCC1(F)CCCC1` , system human RXFP1 (Homo sapiens, UniProt Q9HBX9): what EC50 was measured?
Output line: 0.14 µM

Input line: Entry COc1cc(F)c(OC2CCC(CO)(C(=O)O)CC2)cc1C(=O)NC1CC(OC)CC1C(=O)NCC1(C)CCC1 (single isomer, unassigned) [Example 551] , system human RXFP1 (Homo sapiens, UniProt Q9HBX9): what EC50 was measured?
Output line: 0.7 µM

###

test: Human Liver Microsomal Stability (Test C); format: in vitro ADME; conditions: human, liver microsomes
microsomal CLint vs 10 µL/min/mg: less than gives T; not less than gives F.

Input line: Does this compound meet the criterion microsomal CLint < 10 µL/min/mg? `COc1cc(F)c(O[C@H]2CC[C@@H](C(=O)O)CC2)cc1C(=O)N[C@@H]1[C@H]2CC[C@H](C2)[C@@H]1C(=O)Nc1ccc(S(=O)(=O)C(F)(F)F)cc1`
Output line: F

Input line: Does this compound meet the criterion microsomal CLint < 10 µL/min/mg? COc1cc(F)c(O[C@H]2CC[C@@H](C(=O)O)CC2)cc1C(=O)N[C@H]1[C@@H](C(=O)Nc2ccc(F)c(C(F)(F)F)c2)[C@@H]2C=C[C@H]1C2 (single isomer, unassigned)
Output line: F

Input line: Does this compound meet the criterion microsomal CLint < 10 µL/min/mg? `COc1cc(C#N)c(O[C@H]2CC[C@@](C)(C(=O)O)CC2)cc1C(=O)N[C@@H]1[C@H]2CC[C@H](C2)[C@@H]1C(=O)NCC(F)(F)C(F)(F)F`
Output line: T

Input line: Does this compound meet the criterion microsomal CLint < 10 µL/min/mg? `COc1cc(F)c(O[C@H]2CC[C@@](C)(C(=O)O)CC2)cc1C(=O)N[C@@H]1CCC[C@@H]1C(=O)N[C@@H](C)C(C)C`
Output line: T

Input line: Does this compound meet the criterion microsomal CLint < 10 µL/min/mg? CCC(CC)[C@@H](C)NC(=O)[C@H]1[C@@H]2CC[C@@H](C2)[C@H]1NC(=O)c1cc(O[C@H]2CC[C@@](C)(C(=O)O)CC2)c(F)cc1OC (single isomer, unassigned)
Output line: F

Input line: Does this compound meet the criterion microsomal CLint < 10 µL/min/mg? `COc1cc(C#N)c(O[C@H]2CC[C@@](C)(C(=O)O)CC2)cc1C(=O)N[C@@H]1[C@H]2CC[C@H](C2)[C@@H]1C(=O)NCC1(O)CCC(F)(F)CC1`
Output line: T

Input line: Does this compound meet the criterion microsomal CLint < 10 µL/min/mg? `COc1cc(F)c(O[C@H]2CC[C@@](C)(C(=O)O)CC2)cc1C(=O)Nc1cc(Cl)ccc1C(=O)NCC1(C)CCC1`
Output line: T

Input line: Does this compound meet the criterion microsomal CLint < 10 µL/min/mg? `COc1cc(F)c(O[C@H]2CC[C@@H](C(=O)O)CC2)cc1C(=O)N[C@H]1[C@@H](C(=O)Nc2ccc(OC)c(S(=O)(=O)C(F)(F)F)c2)[C@@H]2C=C[C@H]1C2`
Output line: T

Input line: Does this compound meet the criterion microsomal CLint < 10 µL/min/mg? `COc1c(C#N)cc(O[C@H]2CC[C@@](C)(C(=O)O)CC2)cc1C(=O)N[C@@H]1[C@H]2CC[C@H](C2)[C@@H]1C(=O)NCC1(C)CCC1`
Output line: F

Input line: Does this compound meet the criterion microsomal CLint < 10 µL/min/mg? `COc1cc(C#N)c(-c2ccc(OCC(=O)O)cc2)cc1C(=O)N[C@@H]1[C@H]2CC[C@H](C2)[C@@H]1C(=O)Nc1cccc(S(=O)(=O)C(F)(F)F)c1`
Output line: F

Input line: Does this compound meet the criterion microsomal CLint < 10 µL/min/mg? `COc1cc(F)c(-c2ccc(C(=O)O)cc2)cc1C(=O)N[C@@H]1[C@H]2CC[C@H](C2)[C@@H]1C(=O)Nc1cccc(S(F)(F)(F)(F)F)c1`
Output line: F

###

assay: Rat Hepatocyte Stability (Test E); type: in vitro ADME; settings: rat, hepatocytes, geometric mean if run multiple times
Value type: hepatocyte CLint (µL/min/1e6 cells)
State just the number; it will be interpreted in µL/min/1e6 cells.

Input line: Can you look up the measured hepatocyte CLint of COc1cc(F)c(-c2cnn(CCC(=O)O)c2)cc1C(=O)N[C@@H]1[C@H]2CC[C@H](C2)[C@@H]1C(=O)Nc1cccc(S(=O)(=O)C(F)(F)F)c1 [Example 255] for me?
Output line: 12

Input line: Can you look up the measured hepatocyte CLint of COc1cc(F)c(O[C@H]2CC[C@@H](C(=O)O)CC2)cc1C(=O)N[C@@H]1[C@H]2CC[C@H](C2)[C@@H]1C(=O)Nc1cc(F)cc(S(F)(F)(F)(F)F)c1 [Example 17] for me?
Output line: 11

Input line: Can you look up the measured hepatocyte CLint of COc1cc(C#N)c(O[C@H]2CC[C@@](C)(C(=O)O)CC2)cc1C(=O)N[C@@H]1[C@@H]2CC[C@@H](C2)[C@@H]1C(=O)NCC1(C)CCC1 [Example 388] for me?
Output line: 55

###

target: human RXFP1 (Homo sapiens, UniProt Q9HBX9); experiment: RXFP1 Hu cAMP (Test A); format: cell-based; set-up: expressed in transfected cells; host or cells: Jump-In T-REx CHO-K1 cells (ThermoFisher), induced with 10 ng/ml doxycycline for 24 h; conditions: RXFP1 Hu cAMP; read-out: Test A EC50
EC50 vs 600 nM: less than gives TRUE; not less than gives FALSE.

Input line: Does this molecule meet the criterion EC50 < 600 nM? CCC(CC)CNC(=O)c1ccc(C)cc1NC(=O)c1cc(O[C@H]2CC[C@@](C)(C(=O)O)CC2)c(C#N)cc1OC [Example 167]
Output line: TRUE

Input line: Does this molecule meet the criterion EC50 < 600 nM? COc1cc(C#N)c(O[C@H]2CC[C@@](C)(C(=O)O)CC2)cc1C(=O)Nc1cc(C)ccc1C(=O)NC12CC(C1)C2 [Example 173]
Output line: TRUE

Input line: Does this molecule meet the criterion EC50 < 600 nM? COc1cc(F)c(O[C@H]2CC[C@@](C)(C(=O)O)CC2)cc1C(=O)N[C@@H]1CCC[C@@H]1C(=O)Nc1ccc(F)c(S(F)(F)(F)(F)F)c1 [Example 352]
Output line: TRUE

Input line: Does this molecule meet the criterion EC50 < 600 nM? COc1cc(C#N)c(O[C@H]2CC[C@@](C)(C(=O)O)CC2)cc1C(=O)N[C@@H]1[C@H]2CC[C@H](C2)[C@@H]1C(=O)NCC1(CF)CC1 [Example 95]
Output line: TRUE

Input line: Does this molecule meet the criterion EC50 < 600 nM? COc1cc(F)c(-c2ccc(C[C@@H](C(=O)O)N(C)C)cc2)cc1C(=O)N[C@@H]1[C@H]2CC[C@H](C2)[C@@H]1C(=O)Nc1cccc(S(=O)(=O)C(F)(F)F)c1 (racemic) [Example 289]
Output line: TRUE

Input line: Does this molecule meet the criterion EC50 < 600 nM? COc1cc(C#N)c(O[C@H]2CC[C@@](C)(C(=O)O)CC2)cc1C(=O)N[C@@H]1[C@H]2CC[C@H](C2)[C@@H]1C(=O)NCCC(C)(C)C [Example 130]
Output line: TRUE

Input line: Does this molecule meet the criterion EC50 < 600 nM? COc1cc(F)c(-c2cc(C(=O)O)ccn2)cc1C(=O)N[C@H]1[C@@H](C(=O)Nc2cccc(S(=O)(=O)C(F)(F)F)c2)[C@@H]2C=C[C@H]1C2 (racemic) [Example 277]
Output line: FALSE

Input line: Does this molecule meet the criterion EC50 < 600 nM? COc1cc(C#N)c(O[C@H]2CC[C@@](C)(C(=O)O)CC2)cc1C(=O)N[C@@H]1[C@H]2CC[C@H](C2)[C@@H]1C(=O)NCC1(C)CCCCCC1 [Example 105]
Output line: TRUE

Input line: Does this molecule meet the criterion EC50 < 600 nM? COc1cc(F)c(O[C@H]2CC[C@@H](C(=O)O)CC2)cc1C(=O)N[C@@H]1[C@H]2CC[C@H](C2)[C@@H]1C(=O)Nc1cccc(S(=O)(=O)C(F)(F)F)c1 [Example 491]
Output line: TRUE

Input line: Does this molecule meet the criterion EC50 < 600 nM? COc1cc(C#N)c(O[C@H]2CC[C@@](C)(C(=O)O)CC2)cc1C(=O)N[C@@H]1[C@H]2CC[C@H](C2)[C@@H]1C(=O)N[C@@H](C)c1ccccc1 (racemic) [Example 140]
Output line: TRUE

Input line: Does this molecule meet the criterion EC50 < 600 nM? COc1cc(F)c(O[C@H]2CC[C@@H](C(=O)O)CC2)cc1C(=O)N[C@H]1[C@@H](C(=O)Nc2ccc(F)c(S(=O)(=O)C(F)(F)F)c2)[C@@H]2C=C[C@H]1C2 [Example 489]
Output line: TRUE

Input line: Does this molecule meet the criterion EC50 < 600 nM? COc1cc(F)c(-c2ccc(C(=O)O)cc2)cc1C(=O)N[C@H]1[C@@H](C(=O)Nc2cc(F)cc(S(F)(F)(F)(F)F)c2)[C@@H]2C=C[C@H]1C2 (racemic) [Example 298]
Output line: FALSE

Input line: Does this molecule meet the criterion EC50 < 600 nM? COc1cc(C#N)c(O[C@H]2CC[C@@](C)(C(=O)O)CC2)cc1C(=O)N[C@@H]1[C@H]2CC[C@H](C2)[C@@H]1C(=O)N[C@@H](C)C(C)C [Example 127]
Output line: FALSE

Input line: Does this molecule meet the criterion EC50 < 600 nM? COc1cc(F)c(OCc2ccc(C(C)(C)C(=O)O)cc2)cc1C(=O)N[C@H]1[C@@H](C(=O)Nc2cccc(S(=O)(=O)C(F)(F)F)c2)[C@@H]2C=C[C@H]1C2 (racemic) [Example 452]
Output line: FALSE

Input line: Does this molecule meet the criterion EC50 < 600 nM? COc1cc(F)c(O[C@H]2CC[C@@](F)(C(=O)O)CC2)cc1C(=O)N[C@@H]1[C@H]2CC[C@H](C2)[C@@H]1C(=O)Nc1cccc(S(=O)(=O)C(F)(F)F)c1 [Example 416]
Output line: TRUE

Input line: Does this molecule meet the criterion EC50 < 600 nM? COc1cc(F)c(O[C@H]2CC[C@@H](C(=O)O)CC2)cc1C(=O)N[C@@H]1[C@H]2CC[C@H](C2)[C@@H]1C(=O)Nc1cc(Cl)cnn1 [Example 30]
Output line: FALSE

Input line: Does this molecule meet the criterion EC50 < 600 nM? COc1cc(F)c(O[C@H]2CC[C@@H](C(=O)O)CC2)cc1C(=O)N[C@@H]1[C@H]2CC[C@H](C2)[C@@H]1C(=O)Nc1ccc(C)c(C#N)c1 [Example 19]
Output line: TRUE

Input line: Does this molecule meet the criterion EC50 < 600 nM? COc1cc(C#N)c(O[C@H]2CC[C@@](C)(C(=O)O)CC2)cc1C(=O)N[C@@H]1[C@H]2CC[C@H](C2)[C@@H]1C(=O)NCc1ccc(F)c(F)c1 [Example 123]
Output line: FALSE

Input line: Does this molecule meet the criterion EC50 < 600 nM? COc1cc(F)c(O[C@H]2CC[C@@](C)(C(=O)O)CC2)cc1C(=O)N[C@@H]1CCCO[C@@H]1C(=O)Nc1cccc(S(=O)(=O)C(F)(F)F)c1 [Example 357]
Output line: FALSE

The measured values listed here are drawn from patent US11667602B2.
